- experiment: Repeated administration, drug concentrations of plasma and brain
- Assay type: in vivo, SD rats
- experimentalConditions: after repeated administration
measuredEndpoint: Detection in brain tissue

[[record]]
molecule = "O=C(/C=C/C=C/c1ccc2c(c1)OCO2)N1CCCCC1 [PIP, Piperine, reference compound]"
measuredendpoint = "Detection in brain tissue"
endpointresult = "could be detected"

[[record]]
molecule = "COc1cc(/C=C/C(=O)CC(=O)CCc2ccc(O)c(OC)c2)ccc1O [DHC, Dihydrocurcumin]"
measuredendpoint = "Detection in brain tissue"
endpointresult = "could not be detected"

[[record]]
molecule = "COc1cc(/C=C/C(=O)CC(=O)/C=C/c2ccc(O)c(OC)c2)ccc1O"
measuredendpoint = "Detection in brain tissue"
endpointresult = "could not be detected"

[[record]]
molecule = "O=C(/C=C/c1ccc2c(c1)OCO2)N1CCCCC1 [ILE, Ilepcimide, reference compound]"
measuredendpoint = "Detection in brain tissue"
endpointresult = "could be detected"

